- protocol notes: Viability qHTS for spleen associated tyrosine kinase inhibitor (SYKi) naive MV4-11 cells (AID 1963823); further: nearly all actives have a fitted effect of over 40% in size; further: potency means the concentration at half of the fitted maximal effect
- details: MV4-11 AML viability, CellTiter-Glo luminescence, 72 h; series mostly up to 45 µM
Results filed as inconclusive are left out. Calls of active or inactive are those of the source. The call rests on the fitted dose curve; in most records, active means well fitted cell-killing curve with a large enough effect; inconclusive means small, poorly fitted or top-dose-only effect, or effect the other way; inactive means no such curve, though single readings can be large or run the other way.
measurement kind: Potency

Example compounds with recorded Potency:
| compound | Potency |
| --- | --- |
| Cc1cnc(-c2cc(N3CCN(C(=O)CCS(C)(=O)=O)CC3)ncc2Cl)c(C)c1 | inactive |
| C=C1C(=O)OC2C=C(C)CC/C=C(\CO)CC(O)C12 (stereo unspecified) | 10.3 µM (active) |
| CC(/C=C/C1(O)C(C)(C)CC(O)CC1(C)O)OC1OC(CO)C(O)C(O)C1O (stereo unspecified) | inactive |
| O=C(OC1C=C(CO)C2C(OC3OC(CO)C(O)C(O)C3O)OC=CC12)c1ccc(O)cc1 (stereo unspecified) | inactive |
| CCCc1cc(C)n(C)c(=O)c1CN(C)C(=O)c1cc(-c2ccc(N3CCN(C(C)C)CC3)nc2)cc2c1cnn2C(C)C | inactive |
| C=C(C(=O)OC)C1C(O)CC2(C)C(O)CCC(=O)C2C1O (stereo unspecified) | inactive |
| CC(=O)c1ccc2c(c1)c1cc(C(C)=O)ccc1n2CCNC(C)C | 0.372 µM (active) |
| Cc1nnc(C(C)C)n1C1CC2CCC(C1)N2CC[C@H](NC(=O)C1CCC(F)(F)CC1)c1ccccc1 (stereo partly specified) | inactive |

Query string: Which value of Potency has been reported for `Nc1ccc(S(=O)(=O)Nc2nccs2)cc1` in the records?
Result string: inactive

Query string: Note, next up: `C=C1C(=O)O[C@@H]2/C=C(\C)CC/C=C(\C(=O)O[C@@H]3O[C@H](CO)[C@@H](O)[C@H](O)[C@H]3O)CC[C@@H]12`
Result string: inactive

Query string: Note, next up: C[C@H](NC(c1cccc2[nH]c(=O)c(=O)[nH]c12)P(=O)(O)O)c1ccc(Br)cc1 (stereo partly specified)
Result string: inactive

Query string: Note, next up: `O=C(O)CCc1cccc(O)c1O[C@@H]1O[C@H](CO)[C@@H](O)[C@H](O)[C@H]1O`
Result string: inactive

Query string: Note, next up: `N=c1nc(N2CCCCC2)cc(N)n1O`
Result string: inactive
